Molecular target: hybrid L2/pSS (Oryza sativa; Solanum tuberosum, UniProt P23509+Q7G065)
Construct: hybrid heterotetramer of whole rice L2 and whole potato SS, E. coli EA345, purified
Sequence (P23509 73-521): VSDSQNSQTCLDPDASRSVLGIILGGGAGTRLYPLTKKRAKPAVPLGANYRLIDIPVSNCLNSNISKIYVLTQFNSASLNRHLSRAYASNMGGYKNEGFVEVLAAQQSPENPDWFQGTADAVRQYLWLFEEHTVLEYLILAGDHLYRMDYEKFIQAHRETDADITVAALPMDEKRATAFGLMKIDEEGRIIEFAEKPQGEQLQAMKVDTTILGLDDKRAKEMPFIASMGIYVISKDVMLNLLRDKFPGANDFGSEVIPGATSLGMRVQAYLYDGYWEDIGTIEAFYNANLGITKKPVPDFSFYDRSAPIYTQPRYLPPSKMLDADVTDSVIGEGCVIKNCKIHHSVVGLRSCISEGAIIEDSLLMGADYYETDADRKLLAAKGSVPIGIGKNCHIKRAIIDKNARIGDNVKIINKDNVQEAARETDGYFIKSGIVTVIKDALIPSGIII
Sequence (Q7G065 1-518): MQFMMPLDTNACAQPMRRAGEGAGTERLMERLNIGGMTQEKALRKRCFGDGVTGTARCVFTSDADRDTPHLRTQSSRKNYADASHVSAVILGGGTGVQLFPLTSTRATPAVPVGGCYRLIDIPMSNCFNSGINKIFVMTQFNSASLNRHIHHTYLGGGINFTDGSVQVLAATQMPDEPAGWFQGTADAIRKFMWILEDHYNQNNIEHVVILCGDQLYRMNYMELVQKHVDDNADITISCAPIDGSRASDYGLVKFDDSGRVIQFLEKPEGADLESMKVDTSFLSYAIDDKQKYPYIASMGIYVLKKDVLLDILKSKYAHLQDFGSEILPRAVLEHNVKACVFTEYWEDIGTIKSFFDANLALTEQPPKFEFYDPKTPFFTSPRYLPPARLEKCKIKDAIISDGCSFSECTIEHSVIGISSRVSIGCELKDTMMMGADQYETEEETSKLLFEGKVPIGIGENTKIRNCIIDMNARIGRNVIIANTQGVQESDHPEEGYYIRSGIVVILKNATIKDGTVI
Test: AGPase activity, phosphate release (PAMb colorimetric), Hill fit
Details: allosteric activator; ATP and Glc1P, 10 mM MgCl2, pH 8.0, room temperature; enzyme reduced with 10 mM DTT; read-out: A0.5
metric: EC50 (µM)

>>> experimental_result("O=C(O)[C@H](O)COP(=O)(O)O")
147
